# test summary: Metabolic stability in mouse liver microsomes
# Assay type: in vitro ADME
readout kind: half-life at 1 μmol/L (min)
Reply numerically in min, unit not repeated.

Look up half-life at 1 μmol/L: C=C1C(=O)[C@@]23C(C(=O)C[C@@H]1[C@H]2OC(=O)[C@@H](N)C(C)C)[C@]12CCCC(C)(C)C1C[C@H]3OC2=O (stereo partly shown)
23.7

* * *

# test summary: Metabolic stability in dog liver microsomes
# Assay type: in vitro ADME
readout kind: microsomal CLint at 1 μmol/L (µL/min/mg)
Reply numerically in µL/min/mg, unit not repeated.

Look up microsomal CLint at 1 μmol/L: C=C1C(=O)[C@@]23C(C(=O)C[C@@H]1[C@H]2OC(=O)[C@@H](N)C(C)C)[C@]12CCCC(C)(C)C1C[C@H]3OC2=O (stereo partly shown)
108
